All values here come from IntAct's records for PubMed 29040270.

B1: Rho-related GTP-binding protein RhoE (Homo sapiens), P61587 (parent)
chain: MKERRASQKLSSKSIMDPNQNVKCKIVVVGDSQCGKTALLHVFAKDCFPENYVPTVFENYTASFEIDTQRIELSLWDTSGSPYYDNVRPLSYPDSDAVLICFDISRPETLDSVLKKWKGEIQEFCPNTKMLLVGCKSDLRTDVSTLVELSNHRQTPVSYDQGANMAKQIGAATYIECSALQSENSVRDIFHVATLACVNKTNKNVKRNKSQRATKRISHMPSRPELSAVATDLRKDKAKSCTVM

Variants of: B1
Conditions: with plxb1_human PLXNB1, O43157
Sequence (O43157 whole entry): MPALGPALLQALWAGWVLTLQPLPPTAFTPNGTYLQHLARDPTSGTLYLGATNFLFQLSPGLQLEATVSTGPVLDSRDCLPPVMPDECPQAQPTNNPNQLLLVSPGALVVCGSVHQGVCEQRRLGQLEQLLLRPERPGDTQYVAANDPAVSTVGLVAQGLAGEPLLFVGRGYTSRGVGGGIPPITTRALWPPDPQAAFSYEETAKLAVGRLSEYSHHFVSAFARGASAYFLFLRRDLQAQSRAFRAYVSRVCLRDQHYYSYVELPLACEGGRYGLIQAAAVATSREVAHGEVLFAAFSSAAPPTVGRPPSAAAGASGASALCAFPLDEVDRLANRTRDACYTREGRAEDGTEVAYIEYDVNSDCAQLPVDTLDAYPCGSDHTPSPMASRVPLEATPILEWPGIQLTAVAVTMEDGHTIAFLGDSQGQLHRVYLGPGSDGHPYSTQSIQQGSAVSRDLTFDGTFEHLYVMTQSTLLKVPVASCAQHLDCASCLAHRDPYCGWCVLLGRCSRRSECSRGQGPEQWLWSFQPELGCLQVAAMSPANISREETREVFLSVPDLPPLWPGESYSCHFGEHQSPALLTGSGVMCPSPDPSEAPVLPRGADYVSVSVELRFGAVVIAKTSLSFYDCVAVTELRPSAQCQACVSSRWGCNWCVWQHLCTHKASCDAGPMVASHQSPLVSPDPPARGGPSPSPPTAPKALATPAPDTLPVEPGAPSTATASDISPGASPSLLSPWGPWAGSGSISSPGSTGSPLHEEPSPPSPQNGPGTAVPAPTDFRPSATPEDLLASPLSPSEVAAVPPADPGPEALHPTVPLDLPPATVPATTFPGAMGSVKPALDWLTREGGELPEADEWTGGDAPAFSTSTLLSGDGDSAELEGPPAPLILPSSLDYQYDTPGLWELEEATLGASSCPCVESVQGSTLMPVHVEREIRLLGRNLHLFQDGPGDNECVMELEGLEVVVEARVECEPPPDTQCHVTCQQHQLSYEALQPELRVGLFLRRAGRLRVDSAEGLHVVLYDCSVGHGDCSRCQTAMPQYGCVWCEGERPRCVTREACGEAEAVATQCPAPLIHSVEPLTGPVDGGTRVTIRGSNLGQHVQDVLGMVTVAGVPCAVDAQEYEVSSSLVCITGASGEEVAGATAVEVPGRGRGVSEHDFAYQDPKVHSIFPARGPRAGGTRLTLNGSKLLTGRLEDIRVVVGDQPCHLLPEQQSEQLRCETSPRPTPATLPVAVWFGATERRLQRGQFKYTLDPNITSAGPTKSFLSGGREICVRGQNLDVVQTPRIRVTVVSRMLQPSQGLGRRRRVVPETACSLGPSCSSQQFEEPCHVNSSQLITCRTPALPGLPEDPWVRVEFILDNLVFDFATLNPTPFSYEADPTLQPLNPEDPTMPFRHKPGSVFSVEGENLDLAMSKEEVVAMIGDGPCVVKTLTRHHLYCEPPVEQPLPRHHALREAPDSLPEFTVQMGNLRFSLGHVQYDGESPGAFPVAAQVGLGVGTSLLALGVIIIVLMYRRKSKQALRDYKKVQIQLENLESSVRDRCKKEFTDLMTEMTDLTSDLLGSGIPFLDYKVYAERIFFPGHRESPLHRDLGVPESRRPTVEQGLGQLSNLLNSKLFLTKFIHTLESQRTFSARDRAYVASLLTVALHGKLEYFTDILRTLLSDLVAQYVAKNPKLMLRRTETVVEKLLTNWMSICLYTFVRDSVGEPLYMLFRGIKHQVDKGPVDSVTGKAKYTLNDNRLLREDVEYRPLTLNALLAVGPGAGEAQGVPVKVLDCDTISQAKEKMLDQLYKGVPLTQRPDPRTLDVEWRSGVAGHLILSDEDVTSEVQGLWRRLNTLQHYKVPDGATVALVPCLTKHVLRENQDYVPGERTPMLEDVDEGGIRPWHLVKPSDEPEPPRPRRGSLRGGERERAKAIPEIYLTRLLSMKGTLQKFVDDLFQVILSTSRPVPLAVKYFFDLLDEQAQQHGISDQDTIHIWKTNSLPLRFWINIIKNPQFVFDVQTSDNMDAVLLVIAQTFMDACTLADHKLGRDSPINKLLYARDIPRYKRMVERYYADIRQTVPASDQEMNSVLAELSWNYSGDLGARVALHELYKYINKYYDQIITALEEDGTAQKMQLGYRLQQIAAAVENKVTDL

mut	effect of a mutation on the interaction
Y60A	with no effect
N86R	with no effect
F124Y	with no effect
